- Test system: HOP-62 complex spheroids with HUVEC/MSC, viability
- EXPERIMENT DESCRIPTION: Anticancer human tumor HOP-62 cell line growth inhibition [RAS]; active = viability on the fitted dose curve at most 10% of control; inactive = the rest
- DETAILS: second compound 0.0316 µM; first compound 0.0949 µM
Possible outcomes: 1.0 (active), 0.0 (inactive)

1) CC1(C)CCC(Nc2ncc(C(F)(F)F)c(-c3c[nH]c4c(P(C)(C)=O)c(C#N)ccc34)n2)CN1 (centres undefined) + C#Cc1c(F)ccc2cc(O)cc(-c3ncc4c(N5CC6CCC(C5)N6)nc(OCC56CCCN5CC(F)C6)nc4c3F)c12 : 0.0
2) CCc1c2c(nc3ccc(O)cc13)-c1cc3c(c(=O)n1C2)COC(=O)[C@]3(O)CC + C=CC(=O)N1CCN(c2nc(OCC3CCCN3C)nc3c(F)c(-c4nc(N)cc(C)c4C(F)(F)F)c(Cl)cc23)C(C)C1 : 1.0
3) CC1(C)CCC(Nc2ncc(C(F)(F)F)c(-c3c[nH]c4c(P(C)(C)=O)c(C#N)ccc34)n2)CN1 (centres undefined) + C=CC(=O)N1CCN(c2nc(OCC3CCCN3C)nc3c(F)c(-c4nc(N)cc(C)c4C(F)(F)F)c(Cl)cc23)C(C)C1 : 0.0
4) CCc1c2c(nc3ccc(O)cc13)-c1cc3c(c(=O)n1C2)COC(=O)[C@]3(O)CC + C#Cc1c(F)ccc2cc(O)cc(-c3ncc4c(N5CC6CCC(C5)N6)nc(OCC56CCCN5CC(F)C6)nc4c3F)c12 : 1.0

----------
- Tested on: HOP-62 complex spheroids with HUVEC/MSC, viability
- EXPERIMENT DESCRIPTION: Anticancer human tumor HOP-62 cell line growth inhibition [RAS]; active = viability on the fitted dose curve at most 10% of control; inactive = the rest;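 also: spheroids exposed to agents for seven days before readout; 100% = DMSO vehicle control viability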
- DETAILS: second compound 0.000949 µM; first compound 0.03 µM
- Excerpt: RAS pathway inhibitors in Combinations in Complex Spheroids A high-throughput screen of multi-cell type tumor spheroids was designed to identify active combinations of RAS pathway inhibitors and targeted small molecules. Complex spheroids include a stromal component modeled by human endothelial cells (HUVEC) and fibroblasts modeled by human mesenchymal stem cells (MSCs). […] Compounds. […] If the clinical Cmax for an agent had not been determined, the highest concentration tested was 10 microM. […]
Possible outcomes: 1 for active, -1 for inactive

1. CC1(C)CCC(Nc2ncc(C(F)(F)F)c(-c3c[nH]c4c(P(C)(C)=O)c(C#N)ccc34)n2)CN1 (centres undefined) + CCn1c(-c2cc(N3CCN(C)CC3)cnc2C(C)OC)c2c3cc(ccc31)-c1csc(n1)CC(NC(=O)C1CC1C)C(=O)N1CCCC(N1)C(=O)OCC(C)(C)C2 : -1
2. CCc1c2c(nc3ccc(O)cc13)-c1cc3c(c(=O)n1C2)COC(=O)[C@]3(O)CC + CCn1c(-c2cccnc2C(C)OC)c2c3cc(ccc31)N1CCOC(CC(NC(=O)C(C(C)C)N(C)C(=O)C3(F)CCN(C(=O)C#CC(C)(C)N(C)C)CC3)C(=O)N3CCCC(N3)C(=O)OCC(C)(C)C2)C1 : 1
3. CCc1c2c(nc3ccc(O)cc13)-c1cc3c(c(=O)n1C2)COC(=O)[C@]3(O)CC + CCn1c(-c2cc(N3CCN(C)CC3)cnc2C(C)OC)c2c3cc(ccc31)-c1csc(n1)CC(NC(=O)C1CC1C)C(=O)N1CCCC(N1)C(=O)OCC(C)(C)C2 : 1
4. CC1(C)CCC(Nc2ncc(C(F)(F)F)c(-c3c[nH]c4c(P(C)(C)=O)c(C#N)ccc34)n2)CN1 (centres undefined) + CCn1c(-c2cccnc2C(C)OC)c2c3cc(ccc31)N1CCOC(CC(NC(=O)C(C(C)C)N(C)C(=O)C3(F)CCN(C(=O)C#CC(C)(C)N(C)C)CC3)C(=O)N3CCCC(N3)C(=O)OCC(C)(C)C2)C1 : -1

----------
Attribute: viability, T/C
- System: HOP-62 complex spheroids with HUVEC/MSC, viability
- EXPERIMENT DESCRIPTION: Anticancer human tumor HOP-62 cell line growth inhibition [RAS];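 also: spheroids exposed to agents for seven days before readout; 100% = DMSO vehicle control viability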
- DETAILS: second compound 0.000949 µM; first compound 10 µM; stronger effect = lower value
MEASURED PROPERTY: viability, T/C (%)

1) CC(=O)OC12COC1CC(O)C1(C)C(=O)C(O)C3=C(C)C(OC(=O)C(O)C(NC(=O)OC(C)(C)C)c4ccccc4)CC(O)(C(OC(=O)c4ccccc4)C21)C3(C)C (centres undefined) + CCn1c(-c2cccnc2C(C)OC)c2c3cc(ccc31)N1CCOC(CC(NC(=O)C(C(C)C)N(C)C(=O)C3(F)CCN(C(=O)C#CC(C)(C)N(C)C)CC3)C(=O)N3CCCC(N3)C(=O)OCC(C)(C)C2)C1 : 45.6
2) Cc1nc(N2CCC3(CC2)COC(C)C3N)c(CO)nc1Sc1ccnc(N)c1Cl (centres undefined) + CCn1c(-c2cccnc2C(C)OC)c2c3cc(ccc31)N1CCOC(CC(NC(=O)C(C(C)C)N(C)C(=O)C3(F)CCN(C(=O)C#CC(C)(C)N(C)C)CC3)C(=O)N3CCCC(N3)C(=O)OCC(C)(C)C2)C1 : 31.3
3) CC1(O)CCCC1n1c(=O)c(C(F)F)cc2cnc(NC3CCN(S(C)(=O)=O)CC3)nc21 (centres undefined) + CCn1c(-c2cccnc2C(C)OC)c2c3cc(ccc31)N1CCOC(CC(NC(=O)C(C(C)C)N(C)C(=O)C3(F)CCN(C(=O)C#CC(C)(C)N(C)C)CC3)C(=O)N3CCCC(N3)C(=O)OCC(C)(C)C2)C1 : 2.45
4) CC(=O)OC12COC1CC(O)C1(C)C(=O)C(O)C3=C(C)C(OC(=O)C(O)C(NC(=O)OC(C)(C)C)c4ccccc4)CC(O)(C(OC(=O)c4ccccc4)C21)C3(C)C (centres undefined) + CCn1c(-c2cc(N3CCN(C)CC3)cnc2C(C)OC)c2c3cc(ccc31)-c1csc(n1)CC(NC(=O)C1CC1C)C(=O)N1CCCC(N1)C(=O)OCC(C)(C)C2 : 42.6

----------
- Tested on: HOP-62 complex spheroids with HUVEC/MSC, viability
- EXPERIMENT DESCRIPTION: Anticancer human tumor HOP-62 cell line growth inhibition [RAS];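 also: spheroids exposed to agents for seven days before readout; 100% = DMSO vehicle control viability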
- DETAILS: second compound 0.00949 µM; first compound 0.01 µM; stronger effect = lower value
- Description: RAS pathway inhibitors in Combinations in Complex Spheroids A high-throughput screen of multi-cell type tumor spheroids was designed to identify active combinations of RAS pathway inhibitors and targeted small molecules. Complex spheroids include a stromal component modeled by human endothelial cells (HUVEC) and fibroblasts modeled by human mesenchymal stem cells (MSCs). […] Compounds. […] If the clinical Cmax for an agent had not been determined, the highest concentration tested was 10 microM. […]
MEASURED PROPERTY: viability, T/C (%)

1) C=CC(=O)N1CCN(c2nc(OCC3CCCN3C)nc3c(F)c(-c4nc(N)cc(C)c4C(F)(F)F)c(Cl)cc23)C(C)C1 (configuration not stated) + CCn1c(-c2cccnc2C(C)OC)c2c3cc(ccc31)N1CCOC(CC(NC(=O)C(C(C)C)N(C)C(=O)C3(F)CCN(C(=O)C#CC(C)(C)N(C)C)CC3)C(=O)N3CCCC(N3)C(=O)OCC(C)(C)C2)C1 : 87.6
2) C=CC(=O)Nc1cc(Nc2nccc(-c3cn(C)c4ccccc34)n2)c(OC)cc1N(C)CCN(C)C + CCn1c(-c2cc(N3CCN(C)CC3)cnc2C(C)OC)c2c3cc(ccc31)-c1csc(n1)CC(NC(=O)C1CC1C)C(=O)N1CCCC(N1)C(=O)OCC(C)(C)C2 : 62.5

----------
- Test system: HOP-62 complex spheroids with HUVEC/MSC, viability
- EXPERIMENT DESCRIPTION: Anticancer human tumor HOP-62 cell line growth inhibition [RAS];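 also: spheroids exposed to agents for seven days before readout; 100% = DMSO vehicle control viability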
- DETAILS: second compound 0.03 µM; first compound 0.00316 µM; stronger effect = lower value
Define the label as Fulfilled when viability, T/C is strictly less than 90% and as Not fulfilled in all remaining cases.

1. C=CC(=O)Nc1cc(Nc2nccc(-c3cn(C)c4ccccc34)n2)c(OC)cc1N(C)CCN(C)C + CCn1c(-c2cccnc2C(C)OC)c2c3cc(ccc31)N1CCOC(CC(NC(=O)C(C(C)C)N(C)C(=O)C3(F)CCN(C(=O)C#CC(C)(C)N(C)C)CC3)C(=O)N3CCCC(N3)C(=O)OCC(C)(C)C2)C1 : Not fulfilled
2. CC(C)n1nc(-c2ccc3oc(N)nc3c2)c2c(N)ncnc21 + CCn1c(-c2cc(N3CCN(C)CC3)cnc2C(C)OC)c2c3cc(ccc31)-c1csc(n1)CC(NC(=O)C1CC1C)C(=O)N1CCCC(N1)C(=O)OCC(C)(C)C2 : Fulfilled
3. CC(C)n1nc(-c2ccc3oc(N)nc3c2)c2c(N)ncnc21 + CCn1c(-c2cccnc2C(C)OC)c2c3cc(ccc31)N1CCOC(CC(NC(=O)C(C(C)C)N(C)C(=O)C3(F)CCN(C(=O)C#CC(C)(C)N(C)C)CC3)C(=O)N3CCCC(N3)C(=O)OCC(C)(C)C2)C1 : Fulfilled
4. Nc1ccn(C2OC(CO)C(O)C2(F)F)c(=O)n1 (stereo not drawn) + CCn1c(-c2cc(N3CCN(C)CC3)cnc2C(C)OC)c2c3cc(ccc31)-c1csc(n1)CC(NC(=O)C1CC1C)C(=O)N1CCCC(N1)C(=O)OCC(C)(C)C2 : Fulfilled
5. C=CC(=O)N1CCN(c2nc(OCC3CCCN3C)nc3c(F)c(-c4nc(N)cc(C)c4C(F)(F)F)c(Cl)cc23)C(C)C1 (stereo not drawn) + CCn1c(-c2cc(N3CCN(C)CC3)cnc2C(C)OC)c2c3cc(ccc31)-c1csc(n1)CC(NC(=O)C1CC1C)C(=O)N1CCCC(N1)C(=O)OCC(C)(C)C2 : Fulfilled
6. CCN1CCN(Cc2ccc(Nc3ncc(F)c(-c4cc(F)c5nc(C)n(C(C)C)c5c4)n3)nc2)CC1 + CCn1c(-c2cc(N3CCN(C)CC3)cnc2C(C)OC)c2c3cc(ccc31)-c1csc(n1)CC(NC(=O)C1CC1C)C(=O)N1CCCC(N1)C(=O)OCC(C)(C)C2 : Fulfilled
